test.summary: viability loss with TRAIL in NB7+C8 cells, primary screen, TRAIL sensitizer project, cell-based, ATPlite luminescence (AID 624354)
test.context: at 10 µM
About 3,800 (1.1%) of roughly 360,000 compounds were called active.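 The calls were made as follows: active = compounds causing at least 50% loss of cell viability in the single-dose screen, relative to plate controls; inactive = the rest.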 The sample holds actives, similar compounds and a random draw of the others, so the mix is not that of the screen.
Outcomes: active, inactive

>  <compound>
C(=N\Nc1ccc2ccccc2n1)/c1ccc2c(c1)OCO2

>  <class.name>
active

$$$$
>  <compound>
O=C1c2ccccc2C(c2nc3ccccc3[nH]2)N1c1ccccc1 (stereo unspecified)

>  <class.name>
inactive

$$$$
>  <compound>
Cc1ccc([N+](=O)[O-])cc1S(=O)(=O)N1CCCN(C)CC1

>  <class.name>
inactive

$$$$
>  <compound>
COc1ccc(NC(=O)/C(Cl)=C(/Cl)S(=O)Cc2ccc(C)cc2)cn1 (stereo unspecified)

>  <class.name>
active

$$$$
>  <compound>
COc1cc(NC(=O)Nc2ccc(C)cc2)cc([N+](=O)[O-])c1

>  <class.name>
inactive

$$$$
>  <compound>
Clc1ccc(Nc2ccc3ccccc3n2)cc1

>  <class.name>
inactive

$$$$
>  <compound>
Cc1ccc(S(=O)(=O)N2CCC3(CC2)OCCO3)c(C)c1

>  <class.name>
inactive

$$$$
>  <compound>
O=C(CSc1ncnc2c1nnn2Cc1ccc(F)cc1)NC1CCCC1

>  <class.name>
inactive

$$$$
>  <compound>
CCCn1nc(Oc2nc(NC(C)C)nc(N(C)C)n2)ccc1=O

>  <class.name>
inactive

$$$$
>  <compound>
COc1ccc(C(N)c2csc(NC(=O)Nc3cccc(C(F)(F)F)c3)n2)cc1 (stereo unspecified)

>  <class.name>
inactive

$$$$
>  <compound>
Cc1ccccc1S(=O)(=O)NC(=O)C1(C)CCN1C(=O)C1(c2ccc(Cl)cc2)CC1 (stereo unspecified)

>  <class.name>
inactive

$$$$

Source: PubChem BioAssay AID624354
